System: SK-OV-3 cells
assay-text: Combined use of compound 257 or AMG650 with PLK1 inhibitor on SK-OV-3 cell viability, 168 h (Biological Example 21)
Assay type: cell-based
measurement-context: Homo sapiens, SK-OV-3, 168 h, SK-OV-3 cells, 168 h, KIF18A inhibitor AMG650 3.2 nM; read-out: Volasertib IC50
result-type: IC50 (nM)
Provide only the numeric value, understood in nM.

Param item = `CC[C@@H]1C(=O)N(C)c2cnc(Nc3ccc(C(=O)N[C@H]4CC[C@H](N5CCN(CC6CC6)CC5)CC4)cc3OC)nc2N1C(C)C` ; retrieve measured IC50.
60.5

----------
System: HT29 cells
assay-text: Combined use of compound 257 with PLK1 inhibitor on HT29 cell viability, 72 h (Biological Example 5)
Format: cell-based
measurement-context: Homo sapiens, HT-29, 72 h, HT29 cells, MLN0905 12.5 nM
Protocol: HT29 cells were seeded on a 384-well plate at 3000 cells/well. After overnight adherence culture, DMSO or compound 257 serially diluted in a 1:5 ratio from 5 μM and a PLK1 inhibitor with a specified concentration were added. The cell viability was assessed 72 h after dosing by measuring the intracellular ATP content. The inhibition percentages of viable cells by the compounds were calculated by comparing with the DMSO group, and the IC50 values were also calculated.
result-type: IC50 (nM)
Provide only the numeric value, understood in nM.

Param item = COc1ccc(NC(=O)c2ccc(NS(=O)(=O)CCO)cc2N2CCC3(CC2)CC3)nc1N1CCC(F)(F)CC1 [Compound 257] ; retrieve measured IC50.
4.7

----------
Test system: HT29 cells
assay-text: Combined use of compound 257 with Aurora B inhibitor on HT29 cell viability, 72 h (Biological Example 11)
Format: cell-based
measurement-context: Homo sapiens, HT-29, 72 h, HT29 cells, Barasertib 500 nM
result-type: IC50 (nM)
Provide only the numeric value, understood in nM.

Param item = `COc1ccc(NC(=O)c2ccc(NS(=O)(=O)CCO)cc2N2CCC3(CC2)CC3)nc1N1CCC(F)(F)CC1` ; retrieve measured IC50.
3.3

----------
Tested on: HT29 cells
assay-text: Combined use of compound 257, AMG650 or Compound A with PLK1 inhibitor on HT29 cell viability, 168 h (Biological Example 19)
Type: cell-based
measurement-context: HT29 cells, KIF18A inhibitor AMG650 0.0001 nM, read-out: PLK1 inhibitor IC50
result-type: IC50 (µM)
Provide only the numeric value, understood in µM.

Param item = `COc1cc(C(=O)N[C@H]2CC[C@H](N3CCN(C)CC3)CC2)ccc1Nc1ncc2c(n1)N(C1CCCC1)CC1(CC1)C(=O)N2C` ; retrieve measured IC50.
0.0501

----------
Test system: HT29 cells
assay-text: Combined use of compound 257 or AMG650 with PLK1 inhibitor (Volasertib) on HT29 cell viability, 168 h (Biological Example 22)
Type: cell-based
measurement-context: Homo sapiens, HT-29, 168 h, HT29 cells, 168 h, Volasertib 3.13 nM; read-out: IC50
IC50 overview
Include the unit right after the number.

Cc1cc(NC(=O)c2ccc(NS(=O)(=O)CCO)cc2N2CCC3(CC2)CC3)nc(N2CCC(F)(F)CC2)n1 ... 43 nM

# evaluate next
Param item = `COc1ccc(NC(=O)c2ccc(NS(=O)(=O)CCO)cc2N2CCC3(CC2)CC3)nc1N1CCC(F)(F)CC1` ; retrieve measured IC50.
7.9 nM

----------
Test system: HCT116 cells
assay-text: Combined use of compound 257 or AMG650 with PLK1 inhibitor on HCT116 cell viability, 168 h (Biological Example 8)
Assay type: cell-based
measurement-context: Homo sapiens, HCT-116, HCT116 cells, Volasertib 0 nM
pIC50: −log10 of the molar value.
pIC50 overview

COc1ccc(NC(=O)c2ccc(NS(=O)(=O)CCO)cc2N2CCC3(CC2)CC3)nc1N1CCC(F)(F)CC1 ... < 5.00

# evaluate next
Param item = `Cc1cc(NC(=O)c2ccc(NS(=O)(=O)CCO)cc2N2CCC3(CC2)CC3)nc(N2CCC(F)(F)CC2)n1` ; retrieve measured pIC50.
< 5.00

----------
System: HT29 cells
assay-text: Combined use of compound 257, AMG650 or Compound A with PLK1 inhibitor on HT29 cell viability, 168 h (Biological Example 19)
Type: cell-based
measurement-context: HT29 cells, KIF18A inhibitor Compound 257 0.0001 nM, read-out: PLK1 inhibitor IC50
result-type: IC50 (nM)
Provide only the numeric value, understood in nM.

Param item = `COc1cc(C(=O)N[C@H]2CC[C@H](N3CCN(C)CC3)CC2)ccc1Nc1ncc2c(n1)N(C1CCCC1)CC1(CC1)C(=O)N2C` ; retrieve measured IC50.
52.1

----------
Tested on: HT29 cells
assay-text: Combined use of compound 257 or AMG650 with PLK1 inhibitor (Volasertib) on HT29 cell viability, 168 h (Biological Example 22)
Format: cell-based
measurement-context: Homo sapiens, HT-29, 168 h, HT29 cells, 168 h, KIF18A inhibitor AMG650 0.64 nM; read-out: Volasertib IC50
result-type: IC50 (nM)
Provide only the numeric value, understood in nM.

Param item = `CC[C@@H]1C(=O)N(C)c2cnc(Nc3ccc(C(=O)N[C@H]4CC[C@H](N5CCN(CC6CC6)CC5)CC4)cc3OC)nc2N1C(C)C` ; retrieve measured IC50.
37.8

----------
System: HT29 cells
assay-text: Combined use of compound 257 or AMG650 with PLK1 inhibitor (Volasertib) on HT29 cell viability, 168 h (Biological Example 22)
Type: cell-based
measurement-context: Homo sapiens, HT-29, 168 h, HT29 cells, 168 h, Volasertib 25 nM; read-out: IC50
result-type: IC50 (nM)
Provide only the numeric value, understood in nM.

COc1ccc(NC(=O)c2ccc(NS(=O)(=O)CCO)cc2N2CCC3(CC2)CC3)nc1N1CCC(F)(F)CC1 [Compound 257] ... 0.4

# evaluate next
Param item = Cc1cc(NC(=O)c2ccc(NS(=O)(=O)CCO)cc2N2CCC3(CC2)CC3)nc(N2CCC(F)(F)CC2)n1 [AMG650] ; retrieve measured IC50.
5.9

----------
Test system: HT29 cells
assay-text: Combined use of compound 257 or AMG650 with PLK1 inhibitor on HT29 cell viability, 168 h (Biological Example 7)
Assay type: cell-based
measurement-context: Homo sapiens, HT-29, 168 h, HT29 cells, Volasertib 0 nM
pIC50 overview
Reminder that pIC50 is minus the log10 of a molar concentration.

COc1ccc(NC(=O)c2ccc(NS(=O)(=O)CCO)cc2N2CCC3(CC2)CC3)nc1N1CCC(F)(F)CC1 [Compound 257] ... 7.85

# evaluate next
Param item = Cc1cc(NC(=O)c2ccc(NS(=O)(=O)CCO)cc2N2CCC3(CC2)CC3)nc(N2CCC(F)(F)CC2)n1 [AMG650] ; retrieve measured pIC50.
7.07

----------
Tested on: SK-OV-3 cells
assay-text: Combined use of compound 257 or AMG650 with PLK1 inhibitor on SK-OV-3 cell viability, 168 h (Biological Example 21)
Format: cell-based
measurement-context: Homo sapiens, SK-OV-3, 168 h, SK-OV-3 cells, 168 h, Volasertib 0.0001 nM; read-out: IC50
result-type: pIC50
Reminder that pIC50 is minus the log10 of a molar concentration.

Cc1cc(NC(=O)c2ccc(NS(=O)(=O)CCO)cc2N2CCC3(CC2)CC3)nc(N2CCC(F)(F)CC2)n1 [AMG650] ... 7.14

# evaluate next
Param item = COc1ccc(NC(=O)c2ccc(NS(=O)(=O)CCO)cc2N2CCC3(CC2)CC3)nc1N1CCC(F)(F)CC1 [Compound 257] ; retrieve measured pIC50.
7.81

----------
Test system: HT29 subcutaneous xenograft tumors
assay-text: In vivo pharmacodynamic study, HT29 subcutaneous xenograft tumor model of mice (Biological Example 3)
Parameters: species or system BALB/c nude mice
measurement-context: 80 mg/kg intragastric once daily, day 28
Just a reminder that ties go to class 0: only TGI strictly below 60% counts as class 1.

COc1ccc(NC(=O)c2ccc(S(=O)(=O)NCCOC(C)=O)cc2N2CCC3(CC2)CC3)nc1N1CCC(F)(F)CC1 ... class 1
COc1ccc(NC(=O)c2ccc(S(=O)(=O)NCCOC(=O)[C@@H](N)C(C)C)cc2N2CCC3(CC2)CC3)nc1N1CCC(F)(F)CC1 ... class 0
COc1ccc(C(=O)Nc2ccc(NS(=O)(=O)CCOC(=O)[C@@H](N)C(C)C)cc2N2CCC3(CC2)CC3)nc1N1CCC(F)(F)CC1 ... class 0
Cc1cc(NC(=O)c2ccc(NS(=O)(=O)CCO)cc2N2CCC3(CC2)CC3)nc(N2CCC(F)(F)CC2)n1 ... class 0
COc1ccc(C(=O)Nc2ccc(NS(=O)(=O)CCOC(C)=O)cc2N2CCC3(CC2)CC3)nc1N1CCC(F)(F)CC1 ... class 1

Take the molecule `COc1ccc(NC(=O)c2ccc(NS(=O)(=O)CCOC(=O)[C@@H](N)C(C)C)cc2N2CCC3(CC2)CC3)nc1N1CCC(F)(F)CC1` and say whether its TGI is less than 60%.
class 0
